Can you tell me IC50 for the items I'm about to list?
biological target: HCV NS5B RdRp genotype 1b (Hepatitis C virus genotype 1b, UniProt Q9WMX2); construct: The protein was expressed with an 18 amino acid C-terminal truncation to enhance the solubility; made in house; host or cells: E. coli BL21(DE3), pET21a vector; test: Standard HCV NS5B RdRp enzyme assay; type: biochemical; conditions: Table 1a; HCV NS5B RdRp genotype 1b; read-out: IC50
Sequence (Q9WMX2 2420-2992): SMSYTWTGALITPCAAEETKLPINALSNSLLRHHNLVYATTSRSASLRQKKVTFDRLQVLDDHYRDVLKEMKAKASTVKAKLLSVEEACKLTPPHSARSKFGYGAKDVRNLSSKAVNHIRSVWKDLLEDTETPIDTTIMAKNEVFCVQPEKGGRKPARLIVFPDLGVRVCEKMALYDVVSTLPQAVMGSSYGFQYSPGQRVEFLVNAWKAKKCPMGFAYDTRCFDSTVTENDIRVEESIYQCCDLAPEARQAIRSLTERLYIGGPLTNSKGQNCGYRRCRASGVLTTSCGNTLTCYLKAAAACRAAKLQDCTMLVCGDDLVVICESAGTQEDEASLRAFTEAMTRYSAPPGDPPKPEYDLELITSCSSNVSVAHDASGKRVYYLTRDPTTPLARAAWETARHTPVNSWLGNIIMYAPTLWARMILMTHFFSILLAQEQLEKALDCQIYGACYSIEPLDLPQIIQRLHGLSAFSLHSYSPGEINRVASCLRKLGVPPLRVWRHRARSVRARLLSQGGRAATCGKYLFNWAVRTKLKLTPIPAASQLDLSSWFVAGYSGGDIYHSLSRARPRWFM

Query CNC(=O)c1c(-c2ccc(F)cc2)oc2ccc(-c3cccc(S(=O)(=O)NCCO)c3)cc12 yields IC50 of 1 to 10 µM

IC50 for CNC(=O)c1c(-c2ccc(F)cc2)oc2ccc(-c3cccc(C(=O)N[C@H](C)c4ccc(F)cc4)c3)cc12 is < 0.25 µM

Data point: CNC(=O)c1c(-c2ccc(F)cc2)oc2cc([N+](=O)[O-])c(-c3cccc(C(=O)NC(C)(C)c4ccccc4)c3)cc12 ; IC50 = < 0.25 µM

For reference, reported IC50 for CNC(=O)c1c(-c2ccc(F)cc2)oc2ccc(-c3cccc(C(=O)N4CCCC(CO)C4)c3)cc12 (centres unmarked) stands at 1 to 10 µM

Item: CNC(=O)c1c(-c2ccc(F)cc2)oc2ccc(-c3cccc(C(=O)Nn4c(C)nnc4C)c3)cc12 | IC50: 0.25 to 1 µM

Recorded result, CNC(=O)c1c(-c2ccc(F)cc2)oc2ccc(-c3cccc(C(=O)NCc4ccccc4)c3)cc12 , IC50: < 0.25 µM

Looking up CCOCCNC(=O)c1cccc(-c2ccc3oc(-c4ccc(F)cc4)c(C(=O)NC)c3c2)c1 , I found its IC50 recorded as < 0.25 µM

IC50 for CNC(=O)c1c(-c2ccc(F)cc2)oc2ccc(-c3cccc(C(=O)NCCC(C)(C)C)c3)cc12 is < 0.25 µM

Field IC50 (entry CNC(=O)c1c(-c2ccc(F)cc2)oc2cc(NC(=O)COC)c(-c3cccc(C(=O)NC4(c5ccccc5)CC4)c3)cc12 ) reads 0.25 to 1 µM

Lab book: IC50 of CNC(=O)c1c(-c2ccc(F)cc2)oc2ccc(-c3cccc(C(=O)NC(C)(C)c4ccccc4)c3)c([N+](=O)[O-])c12 noted as < 0.25 µM

// CNC(=O)c1c(-c2ccc(F)cc2)oc2ccc(-c3cccc(C(=O)N(C)Cc4ccccc4)c3)cc12 : IC50 value = 0.25 to 1 µM

The recorded IC50 for CNC(=O)c1c(-c2ccc(F)cc2)oc2ccc(-c3cccc(C(=O)N(C)C(C)(C)C)c3)cc12 is < 0.25 µM

So for CNC(=O)c1c(-c2ccc(F)cc2)oc2ccc(-c3ccc(C(=O)N4CCC[C@@H]4COC)cc3)cc12 [drawing 288] , the logged IC50 turned out to be > 10 µM

Reported IC50 ( CNC(=O)c1c(-c2ccc(F)cc2)oc2ccc(-c3cccc(C(=O)N4CCc5ccccc54)c3)cc12 ) = 1 to 10 µM

According to the records, this compound CNC(=O)c1c(-c2ccc(F)cc2)oc2ccc(-c3ccc(C(=O)NCCOC)cc3)cc12 displays IC50 of > 10 µM

The compound CNC(=O)c1c(-c2ccc(F)cc2)oc2ccc(-c3cccc(C(=O)N4CCC(c5ccc(F)cc5)C4)c3)cc12 (centres unmarked) showed IC50 equal to 0.25 to 1 µM

Data point: CNC(=O)c1c(-c2ccc(F)cc2)oc2ccc(-c3ccc(C(=O)NCC(C)C)cc3)cc12 ; IC50 = > 10 µM
